// data source = patent US5622828

# test system: T1, secretory phospholipase A2 (sPLA2) (Homo sapiens, UniProt P14555 P14555:21-144)
# T1 sequence: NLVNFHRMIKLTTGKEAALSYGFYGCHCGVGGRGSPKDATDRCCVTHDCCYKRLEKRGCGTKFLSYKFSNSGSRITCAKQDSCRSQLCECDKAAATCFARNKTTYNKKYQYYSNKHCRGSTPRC
# method summary: filter; biphasic, Kd2 170 nM, mole fraction 0.65; TBSC, 37 C
# test parameters: tags: supplied by Eli Lilly
pKd: −log10 of the molar value.
quantity measured: pKd

1. 35t (ssRNA) RNA: GGGAGCUCAGAAUAAACGCUCAAGGCUGGGUCUUUUACAGGUAAAGCUGAGAAUUCGACAUGAGGCCCGGAUCCGGC
8.62
